viability, T/C reference
System: 889142-216-R-J1-PDC complex spheroid viability
ASSAY PROTOCOL: Anticancer human tumor 889142-216-R-J1-PDC patient-derived bladder carcinoma cell line growth inhibition [POLQ]
EXPERIMENTAL SETUP: second compound 1 µM; first compound 3.16 µM; stronger effect = lower value

[
  {
    "COMPOUND": "CCCS(=O)(=O)Nc1ccc(F)c(C(=O)c2c[nH]c3ncc(-c4ccc(Cl)cc4)cc23)c1F + COC1C(OC(N)=O)C(O)C(Oc2ccc3c(O)c(NC(=O)c4ccc(O)c(CC=C(C)C)c4)c(=O)oc3c2C)OC1(C)C",
    "viability, T/C [%]": 64.5
  },
  {
    "COMPOUND": "COc1cc(C2c3cc4c(cc3C(OC3OC5COC(C)OC5C(O)C3O)C3COC(=O)C23)OCO4)cc(OC)c1O (stereo not drawn) + Cc1cccc(N(C)C(=O)C2C(O)CCN2c2nc(C)cc(C(F)(F)F)c2C#N)c1",
    "viability, T/C [%]": 70.6
  },
  {
    "COMPOUND": "CC1COCCN1c1cc(C2(O)CC3CCC(C2)O3)c2cnn(-c3ccn[nH]3)c2n1 (stereo not drawn) + COC1C(OC(N)=O)C(O)C(Oc2ccc3c(O)c(NC(=O)c4ccc(O)c(CC=C(C)C)c4)c(=O)oc3c2C)OC1(C)C",
    "viability, T/C [%]": 29.5
  }
]

###

In this section, each of the molecules is paired with its reported IC50.
System: 889142-216-R-J1-PDC complex spheroid viability
ASSAY PROTOCOL: Anticancer human tumor 889142-216-R-J1-PDC cell line growth inhibition [POLQ];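 also: spheroids exposed to compounds for seven days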
EXPERIMENTAL SETUP: curve of first compound; second compound 0.1 µM

[
  {
    "MOLECULE": "CNCc1ccc(-c2[nH]c3cc(F)cc4c3c2CCNC4=O)cc1 + Nc1ccc(C#CCN(C(=O)Cc2ncc(C(F)(F)F)cc2C(F)(F)F)c2ccc(F)cc2)nn1",
    "TARGET UNDER TEST": "889142-216-R-J1-PDC complex spheroid viability",
    "OUTPUT UNIT": "nM",
    "QUALIFYING SIGN": ">",
    "IC50": 10000
  },
  {
    "MOLECULE": "CC1COCCN1c1cc(C2(S(C)(=N)=O)CC2)nc(-c2ccnc3[nH]ccc23)n1 (stereo unspecified) + COC1C(OC(N)=O)C(O)C(Oc2ccc3c(O)c(NC(=O)c4ccc(O)c(CC=C(C)C)c4)c(=O)oc3c2C)OC1(C)C",
    "TARGET UNDER TEST": "889142-216-R-J1-PDC complex spheroid viability",
    "OUTPUT UNIT": "nM",
    "QUALIFYING SIGN": "=",
    "IC50": 1800
  },
  {
    "MOLECULE": "CCc1c2c(nc3ccc(O)cc13)-c1cc3c(c(=O)n1C2)COC(=O)[C@]3(O)CC + Nc1ccc(C#CCN(C(=O)Cc2ncc(C(F)(F)F)cc2C(F)(F)F)c2ccc(F)cc2)nn1",
    "TARGET UNDER TEST": "889142-216-R-J1-PDC complex spheroid viability",
    "OUTPUT UNIT": "nM",
    "QUALIFYING SIGN": "=",
    "IC50": 16
  },
  {
    "MOLECULE": "CCc1cc2c(N3CCc4c(cc(Cn5ccnc5)cc4-c4cn(C)nc4C(F)(F)F)C3=O)ccnc2c(OC)n1 + Nc1ccc(C#CCN(C(=O)Cc2ncc(C(F)(F)F)cc2C(F)(F)F)c2ccc(F)cc2)nn1",
    "TARGET UNDER TEST": "889142-216-R-J1-PDC complex spheroid viability",
    "OUTPUT UNIT": "nM",
    "QUALIFYING SIGN": ">",
    "IC50": 10000
  },
  {
    "MOLECULE": "CCCS(=O)(=O)Nc1ccc(F)c(C(=O)c2c[nH]c3ncc(-c4ccc(Cl)cc4)cc23)c1F + COC1C(OC(N)=O)C(O)C(Oc2ccc3c(O)c(NC(=O)c4ccc(O)c(CC=C(C)C)c4)c(=O)oc3c2C)OC1(C)C",
    "TARGET UNDER TEST": "889142-216-R-J1-PDC complex spheroid viability",
    "OUTPUT UNIT": "nM",
    "QUALIFYING SIGN": "=",
    "IC50": 4990
  },
  {
    "MOLECULE": "CC1COCCN1c1cc(-c2ccnn2C)c2ccnc(-c3ccn[nH]3)c2n1 (stereo unspecified) + Nc1ccc(C#CCN(C(=O)Cc2ncc(C(F)(F)F)cc2C(F)(F)F)c2ccc(F)cc2)nn1",
    "TARGET UNDER TEST": "889142-216-R-J1-PDC complex spheroid viability",
    "OUTPUT UNIT": "nM",
    "QUALIFYING SIGN": "=",
    "IC50": 349
  }
]
